- Tested on: NFκB and AP-1
- methodDescription: NFκB and AP-1 luciferase reporter assays in stable Jurkat T-cells (PMA/PHA stimulated)
- Format: cell-based, human
- recordedConditions: average of NFκB and AP-1 assays, read-out: ICm (average of the measurements obtained from the NFκB and AP-1 assays)
observable: pIC50
The quantity pIC50 is defined as the negative base-10 logarithm of the molar concentration.

Data point: 4-[N-(1'-AMINOCITRACONAMIDO)]-5-(N-METHYL TETRAZOLYL)-2-(2"-THIENYL)PYRIMIDINE [Example 135] ; pIC50 = 6.92
